assay: Wet adhesion of the coating formulation, DIN 53 151 crosshatch cut and tape tearoff test, after the humidity test; conditions: 1% inhibitor; after humidity test 330 hours; scale Gt 0 (completely intact adhesion) to Gt 5 (inadequate adhesion)
Metric: Wet adhesion (Gt value)

CCCCCCCCCCN(CP(=O)(O)O)CP(=O)(O)O.CCN1CCOCC1.CCN1CCOCC1 = 0-1 Gt
CCCCC(CC)CN(CP(=O)(O)O)CP(=O)(O)O.CCN1CCOCC1.CCN1CCOCC1 (stereo not shown) = 0 Gt
CCCCCCN(CP(=O)(O)O)CP(=O)(O)O.CCN1CCOCC1.CCN1CCOCC1 = 0 Gt
CCCCCCCCCCCCCCCCCCN(CP(=O)(O)O)CP(=O)(O)O.CCN1CCOCC1.CCN1CCOCC1 = 0 Gt

* * *

Listed here: items and their measured Wet adhesion (Gt value).
test: Wet adhesion of the coating formulation, DIN 53 151 crosshatch cut and tape tearoff test, after the humidity test; conditions: 2% inhibitor; after humidity test 330 hours; scale Gt 0 (completely intact adhesion) to Gt 5 (inadequate adhesion)
Metric: Wet adhesion (Gt value) (Gt)

CCCCCCN(CP(=O)(O)O)CP(=O)(O)O.CCN1CCOCC1.CCN1CCOCC1 = 0
CCCCCCCCN(CP(=O)(O)O)CP(=O)(O)O.CCN1CCOCC1.CCN1CCOCC1 = 0
CCCCCCCCCCCCN(CP(=O)(O)O)CP(=O)(O)O.OCCN(CCO)CCO.OCCN(CCO)CCO = 0
CCCCCCCCCCCCN(CP(=O)(O)O)CP(=O)(O)O.CCN1CCOCC1.CCN1CCOCC1 = 0
CCCCCCCCCCCCCCN(CP(=O)(O)O)CP(=O)(O)O.CCN1CCOCC1.CCN1CCOCC1 = 0
CCCCC(CC)CN(CP(=O)(O)O)CP(=O)(O)O.CCN1CCOCC1.CCN1CCOCC1 (stereo not shown) = 0
CCCCCCCCCCCCCCCCCCN(CP(=O)(O)O)CP(=O)(O)O.CCN1CCOCC1.CCN1CCOCC1 = 0
